Assign Log P [a] to each entry below.
assay_explanation: logP by HPLC on reversed-phase columns (C 18), EEC directive 79/831 Annex V.A8
Assay type: physicochemical
cond: LC-MS, acidic range, pH 2.7, 0.1% aqueous formic acid and acetonitrile

Kindly note the recorded Log P [a] for C=CCOc1c(F)cccc1C1CC(c2csc(C3CCN(C(=O)Cn4nc(C(F)(F)F)cc4C)CC3)n2)=NO1 (racemic) , which is 3.97[a];

Kindly note the recorded Log P [a] for COCCOCc1ccccc1C1CC(c2csc(C3CCN(C(=O)Cn4nc(C(F)(F)F)cc4C)CC3)n2)=NO1 (racemic) , which is 3.28[a]

Kindly note the recorded Log P [a] for C#CCOc1ccccc1C1CC(c2csc(C3CCN(C(=O)Nc4cc(C)ccc4C)CC3)n2)=NO1 (racemic) , which is 3.43[a];

Kindly note the recorded Log P [a] for Cc1cc(C(F)(F)F)nn1CC(=O)N1CCC(c2nc(C3=NOC(c4ccccc4COCC(F)(F)F)C3)cs2)CC1 (racemic) , which is 3.77[a]
